Tested on: HT29 colon
Experiment: NCI tumour cell line growth inhibition, 48 h
Assay Endpoint: TGI (µM)

>>> number("COC(=O)c1cc(C)ccc1C1CN=NC12Cc1c(C)cc(C)cc1C2=O (stereo not given)")
45.8
>>> number("N=c1ccc2nc3c(cc(N)c4ccccc43)oc-2c1")
1.7
>>> number("COc1ccc(OC)c(C[P+](c2ccccc2)(c2ccccc2)c2ccccc2)c1")
11.8
>>> number("CC(C)(Cc1ccccc1)N1C(=O)N1C(C)(C)Cc1ccccc1")
32.9

* * *

Test system: SW-620 colon
Experiment: NCI tumour cell line growth inhibition, 48 h; in the data active means GI50 below about 0.43 µM; inactive means the rest
Classes used: active, inactive

>>> group("CC(=O)c1cc(-c2ccccc2N)n(-c2ccc3c(c2)OCO3)c1C")
"active"
>>> group("O=C(Nc1ccc(Br)cc1)Nc1nn(C(=O)Nc2ccc(Br)cc2)c2ccccc12")
"inactive"
>>> group("CCC[CH2][Sn]1([CH2]CCC)[O]C(=O)c2ccc(N)cc2[O]1")
"active"
>>> group("CCCCN(CCCC)CCc1c(C)cc(C)c(CCN(CCCC)CCCC)c1O")
"inactive"
>>> group("CNCCNc1nc2ccccc2c2c(=O)c3cc(F)ccc3sc12")
"inactive"
>>> group("C[C@]12CC[C@@H](OC(=O)N(CCCl)N=O)C[C@@H]1CC[C@@H]1[C@@H]2CC[C@]2(C)C(=O)CC[C@@H]12")
"inactive"
>>> group("CNCCNc1nc2ccccc2c2c(=O)c3cc(OC)ccc3sc12")
"inactive"
>>> group("CCOC(=O)Nc1nc2cc(OCC)ccc2s1")
"inactive"
>>> group("CC[C@H](Nc1nc(N)nc(C2CC2)c1C#N)c1nc2cccc(NCc3ccc(C(=O)NO)cc3)c2c(=O)n1-c1ccccc1")
"inactive"
>>> group("CCOC(=O)c1c2c(n(Cc3ccccc3)c1C)-c1nc(Cc3ccccc3)[nH]c1C(=O)C2=O")
"inactive"

* * *

Tested on: SNB-19 CNS
Assay: NCI tumour cell line growth inhibition, 48 h
// reported GI50 per item
Assay Endpoint: GI50

>>> result("N=c1ccc2nc3c(cc(N)c4ccccc43)oc-2c1")
"0.242 µM"
>>> result("CCCCN(CC)c1ncnc2ccc(Br)cc12")
"35.2 µM"
>>> result("CC(C)(C)n1cc(-c2ccnc(NCCCNS(=O)(=O)c3ccc(Br)cc3)c2)c(-c2cccc(O)c2)n1")
"2.11 µM"
>>> result("CC[C@@]12C=CCN3CC[C@]4(c5cc(NC(=O)COc6cc(OCC(=O)Nc7cc8c(cc7OC)N(C)[C@H]7[C@@](O)(C(=O)OC)[C@H](OC(C)=O)[C@]9(CC)C=CCN%10CC[C@]87[C@@H]%109)cc7oc(-c8ccccc8)cc(=O)c67)c(OC)cc5N(C)[C@@H]4[C@](O)(C(=O)OC)[C@H]1OC(C)=O)[C@H]32")
"5.71 µM"
>>> result("CC[C@H](Nc1nc(N)nc(C2CC2)c1C#N)c1nc2cccc(NCc3ccc(C(=O)NO)cc3)c2c(=O)n1-c1ccccc1")
"2.18 µM"
>>> result("Clc1ccc2c(c1)C(N1CCNCC1)=Nc1ccccc1O2")
"2.97 µM"
>>> result("COc1cc(/C=C2\\CN(C(=O)CCN3CCC(=NO)CC3)C/C(=C\\c3cc(OC)c(OC)c(OC)c3)C2=O)cc(OC)c1OC")
"0.452 µM"
>>> result("CC[C@]1(O)C[C@@H]2CN(CCc3c([nH]c4ccccc34)[C@@](C(=O)OC)(c3cc4c(cc3OC)N(C)[C@H]3[C@@](O)(C(N)=O)[C@H](O)[C@]5(CC)[C@@H]6C[C@@H]6CN6CC[C@]43[C@@H]65)C2)C1")
"< 0.00333 µM"

Numbers sourced from PubChem BioAssay (NCI).
